Data origin, for the record: patent US5196094A

# method: Vapor-liquid equilibrium still, separation of 1,1,1-trichloroethane from ethanol
# Type: physicochemical
# settings: 1,1,1-trichloroethane from ethanol

compound | Relative Volatility
CCOCCO [Ethylene glycol ethyl ether] | 2.5
CC(C)CCCCCO [Isooctyl alcohol] | 2.1
CC(=O)OC(C)C [Isopropyl acetate] | 1.6
CC(C)CC(=O)CC(C)C [Diisobutyl ketone] | 1.7
CC(C)CC(C)O (stereo not shown) [4-Methyl-2-pentanol] | 2.1
CC(=O)CCC(C)C [Methyl isoamyl ketone] | 2.0
CC(C)CCO [3-Methyl-1-butanol] | 2.9
COCC(C)O (stereo not shown) [Propylene glycol methyl ether] | 2.0
CC(=O)OCc1ccccc1 [Benzyl acetate] | 1.2
CCC(C)O (stereo not shown) [2-Butanol] | 2.0

---

# maps each entry to its Relative Volatility
# method: Vapor-liquid equilibrium still, separation of 1,1,1-trichloroethane from ethanol
# Assay type: physicochemical
# settings: 1,1,1-trichloroethane from ethanol
Counter-ions that a name gives are not always drawn.

compound | Relative Volatility
CCOCCC(=O)OCC [Ethyl 3-ethoxy propionate] | 1.6
CC(=O)OCCOC(C)=O [Ethylene glycol diacetate] | 1.7
CC(=O)c1ccccc1 [Acetophenone] | 1.35
CCCOC(C)=O [n-Propyl acetate] | 1.85
CCCCCCOC=O [n-Hexyl formate] | 1.4
OCC1CCCO1 (stereo not drawn) [Tetrahydro furfuryl alcohol] | 2.3

---

# method: Vapor-liquid equilibrium still, separation of 1,1,1-trichloroethane from methanol
# Assay type: physicochemical
# maps each entry to its Relative Volatility
endpoint_label: Relative Volatility

compound | readout_value
CCCCC(=O)OCC [Ethyl n-valerate] | 2.7
CC(C)CCO [Isoamyl alcohol] | 2.2
CCOCCOCCOCC [Diethylene glycol diethyl ether] | 2.7
CC(=O)OCc1ccccc1 [Benzyl acetate] | 2.5
CCCCCCCO [Heptyl alcohol] | 3.6
CC(C)COCC(C)O (stereo not drawn) [Propylene glycol isobutyl ether] | 2.5

---

# method: Vapor-liquid equilibrium still, separation of 1,1,1-trichloroethane from methanol
# Assay type: physicochemical
Structures can show the parent of a compound that is named as a salt.
# maps each entry to its Relative Volatility

compound | Relative Volatility
CCOCCOCCO [Diethylene glycol ethyl ether] | 2.9
CCCCCCOC=O [n-Hexyl formate] | 1.7
CC(=O)CC(C)=O [2,4-Pentanedione] | 2.7
CN(C)C=O [Dimethylformamide] | 2.8
CN1CCCC1=O [1-Methyl-2-pyrrolidinone] | 2.7
CCCCCCCCCCO [n-Decanol] | 2.5
CC(C)CC(=O)CC(C)C [Diisobutyl ketone] | 2.7

---

# method: Vapor-liquid equilibrium still, separation of 1,1,1-trichloroethane from 2-butanol
# Assay type: physicochemical
# settings: 1,1,1-trichloroethane from 2-butanol; vapor-liquid equilibrium still
# maps each entry to its Relative Volatility

molecule | Relative Volatility
COCC(C)OC(C)=O (stereo not drawn) [1-Methoxy-2-propanol acetate] | 4.3
CCC(CC)CO [2-Ethyl butanol] | 3.3
O=C1OCCO1 [Ethylene carbonate] | 2.8
CCOCCOCCO [Diethylene glycol ethyl ether] | 2.8
CC(O)COc1ccccc1 (stereo not drawn) [Propylene glycol phenyl ether] | 2.4
CCCCOCCO [Ethylene glycol butyl ether] | 2.8
OCC1CCCO1 (stereo not drawn) [Tetrahydro furfuryl alcohol] | 3.2
OCCOc1ccccc1 [Ethylene glycol phenyl ether] | 2.0
CC(=O)OC(C)CC(C)C (stereo not drawn) [4-Methyl pentyl acetate-2] | 1.7
CC(=O)OCc1ccccc1 [Benzyl acetate] | 1.7
CC1=CC(=O)CC(C)(C)C1 [Isophorone] | 2.0
CCOCCOCCOC(C)=O [Diethylene glycol ethyl ether acetate] | 2.1

---

# method: Vapor-liquid equilibrium still, separation of 1,1,1-trichloroethane from n-propanol
# Assay type: physicochemical
# settings: 1,1,1-trichloroethane from n-propanol; vapor-liquid equilibrium still
# maps each entry to its Relative Volatility

molecule | Relative Volatility
CCCCOCCOCCO | 2.8
COCC(C)O (stereo not shown) | 4.2
C[S+](C)[O-] [Dimethylsulfoxide] | 2.3
CC1COC(=O)O1 (stereo not shown) [Propylene carbonate] | 2.0
CCCCCCOCCOCCO | 2.0
CCCCO | 3.9
O=C(OCc1ccccc1)c1ccccc1 [Benzyl benzoate] | 1.6
CCCCOCCO | 2.0
CC(=O)CCC(C)C | 1.3
CC(O)COc1ccccc1 (stereo not shown) | 3.4

---

# method: Vapor-liquid equilibrium still, separation of 1,1,1-trichloroethane from isopropanol
# Assay type: physicochemical
# maps each entry to its Relative Volatility
endpoint_label: Relative Volatility

molecule | endpoint_label | readout_value
CC(=O)OCc1ccccc1 [Benzyl acetate] | Relative Volatility | 1.55
COCC(C)OC(C)=O (stereo not shown) [1-Methoxy-2-propanol acetate] | Relative Volatility | 1.7
CCCCC(CC)COC(C)=O (stereo not shown) [2-Ethyl hexyl acetate] | Relative Volatility | 1.3
CCOC(=O)CC(C)C [Ethyl isovalerate] | Relative Volatility | 1.6
CCCCCCOC(C)=O [Hexyl acetate] | Relative Volatility | 1.35
CCC(C)COC(C)=O (stereo not shown) [2-Methyl butyl acetate] | Relative Volatility | 1.35
CCCCCOC(C)=O [Amyl acetate] | Relative Volatility | 1.4
CC(O)COc1ccccc1 (stereo not shown) [Propylene glycol phenyl ether] | Relative Volatility | 1.6
N#CCCCCC#N [Adiponitrile] | Relative Volatility | 1.25
CCCCOCCOC(C)=O [Ethylene glycol butyl ether acetate] | Relative Volatility | 1.3
CCCCC(=O)OCC [Ethyl n-valerate] | Relative Volatility | 1.35
CC[N+](=O)[O-] [Nitroethane] | Relative Volatility | 1.3
CC(=O)Oc1ccccc1 [Phenyl acetate] | Relative Volatility | 1.25
CCCC(=O)OCC [Ethyl butyrate] | Relative Volatility | 1.3
CC(C)COC(=O)C(C)C [Isobutyl isobutyrate] | Relative Volatility | 1.3
CN(C)C=O [Dimethylformamide] | Relative Volatility | 1.55
O=S1(=O)CCCC1 [Sulfolane] | Relative Volatility | 1.4
C[S+](C)[O-] [Dimethylsulfoxide] | Relative Volatility | 2.5
CC(=O)OCC(C)C [Isobutyl acetate] | Relative Volatility | 1.35

---

# method: Vapor-liquid equilibrium still, separation of 1,1,1-trichloroethane from ethanol
# Format: physicochemical
# settings: 1,1,1-trichloroethane from ethanol
# maps each entry to its Relative Volatility
endpoint_label: Relative Volatility

molecule | readout_value
CCCCCCCCCC(C)=O | 1.4
CC(C)CO | 1.35
CCCCOCCOC(C)=O [Ethylene glycol butyl ether acetate] | 1.2
CC(=O)OCCC(C)C [Isoamyl acetate] | 1.25
CC(=O)C(C)(C)C | 1.65
CC(=O)CC(C)(C)O | 2.7
CN1CCCC1=O | 2.5
O=C1OCCO1 [Ethylene carbonate] | 3.2
CCCCCC(C)=O | 1.3
CCOC(=O)CC(C)C [Ethyl isovalerate] | 1.4
CC(C)COC(=O)C(C)C [Isobutyl isobutyrate] | 3.3
COCC(C)O (centres unmarked) [1-Methoxy-2-propanol] | 2.9
CC(=O)CC(C)C [4-Methyl-2-pentanone] | 1.6
CC1COC(=O)O1 (centres unmarked) [Propylene carbonate] | 2.2
CC(=O)CC(C)C [Methyl isobutyl ketone] | 1.85
CCOCCOCCO | 1.2
COCCOCCO | 3.3
CCOC(=O)c1ccccc1 [Ethyl benzoate] | 1.55
CCCCC(=O)OCC [Ethyl n-valerate] | 1.6
CCCCO | 3.5
CC1=CC(=O)CC(C)(C)C1 | 1.55
COCCO | 1.95
O=S1(=O)CCCC1 | 2.2
CC(C)CC(=O)CC(C)C [2,6-Dimethyl-4-heptanone] | 1.65
COC(=O)c1ccccc1O [Methyl salicylate] | 1.55
CCOC(=O)CC(C)=O [Ethyl acetoacetate] | 1.7

---

# method: Vapor-liquid equilibrium still, separation of 1,1,1-trichloroethane from 2-butanol
# Format: physicochemical
# maps each entry to its Relative Volatility

molecule | Relative Volatility
CC(=O)CC(C)=O | 1.8
CCCCOCCOC(C)=O [Ethylene glycol butyl ether acetate] | 1.8
CC(=O)c1ccccc1 | 3.0
CCCCCCCO | 3.1
CCCCC(CC)COC(C)=O (stereo not shown) [2-Ethyl hexyl acetate] | 1.6
COCCOCCO | 3.0
CCCCCCOCCO | 2.9
CC(=O)O[C@@H]1C[C@H]2CC[C@]1(C)C2(C)C (racemic) [Isobornyl acetate] | 1.7
C[S+](C)[O-] [Dimethylsulfoxide] | 2.2
CCC[N+](=O)[O-] | 1.6
CCCCCOC(C)=O [Amyl acetate] | 1.5
CCCCOCCOCCO | 2.7
CN(C)C=O [Dimethylformamide] | 2.8
CC(C)[N+](=O)[O-] | 1.6
CC(C)COC(=O)C(C)C [Isobutyl isobutyrate] | 1.5
CC(C)CC(=O)CC(C)C | 1.5
CC(C)CCO | 1.6
O=[N+]([O-])c1ccccc1 | 1.6
O=S1(=O)CCCC1 | 2.7
CCCCCCOC(C)=O [Hexyl acetate] | 1.6
CC(C)CC(O)CC(C)C | 2.2
CCOC(=O)CC(C)C [Ethyl isovalerate] | 1.6
CCOCCO | 3.1
COCC(C)OC(C)=O (stereo not shown) [Propylene glycol methyl ether acetate] | 1.8
COCCO | 4.5
